Kindly supply the reported pIC50 values for the records listed here.
# ASSAYED_SYSTEM: EGFR (L858R & T790M) (Homo sapiens, UniProt P00533, L858R/T790M)
# Construct: GST
# Sequence (P00533 25-1210 T790M/L858R): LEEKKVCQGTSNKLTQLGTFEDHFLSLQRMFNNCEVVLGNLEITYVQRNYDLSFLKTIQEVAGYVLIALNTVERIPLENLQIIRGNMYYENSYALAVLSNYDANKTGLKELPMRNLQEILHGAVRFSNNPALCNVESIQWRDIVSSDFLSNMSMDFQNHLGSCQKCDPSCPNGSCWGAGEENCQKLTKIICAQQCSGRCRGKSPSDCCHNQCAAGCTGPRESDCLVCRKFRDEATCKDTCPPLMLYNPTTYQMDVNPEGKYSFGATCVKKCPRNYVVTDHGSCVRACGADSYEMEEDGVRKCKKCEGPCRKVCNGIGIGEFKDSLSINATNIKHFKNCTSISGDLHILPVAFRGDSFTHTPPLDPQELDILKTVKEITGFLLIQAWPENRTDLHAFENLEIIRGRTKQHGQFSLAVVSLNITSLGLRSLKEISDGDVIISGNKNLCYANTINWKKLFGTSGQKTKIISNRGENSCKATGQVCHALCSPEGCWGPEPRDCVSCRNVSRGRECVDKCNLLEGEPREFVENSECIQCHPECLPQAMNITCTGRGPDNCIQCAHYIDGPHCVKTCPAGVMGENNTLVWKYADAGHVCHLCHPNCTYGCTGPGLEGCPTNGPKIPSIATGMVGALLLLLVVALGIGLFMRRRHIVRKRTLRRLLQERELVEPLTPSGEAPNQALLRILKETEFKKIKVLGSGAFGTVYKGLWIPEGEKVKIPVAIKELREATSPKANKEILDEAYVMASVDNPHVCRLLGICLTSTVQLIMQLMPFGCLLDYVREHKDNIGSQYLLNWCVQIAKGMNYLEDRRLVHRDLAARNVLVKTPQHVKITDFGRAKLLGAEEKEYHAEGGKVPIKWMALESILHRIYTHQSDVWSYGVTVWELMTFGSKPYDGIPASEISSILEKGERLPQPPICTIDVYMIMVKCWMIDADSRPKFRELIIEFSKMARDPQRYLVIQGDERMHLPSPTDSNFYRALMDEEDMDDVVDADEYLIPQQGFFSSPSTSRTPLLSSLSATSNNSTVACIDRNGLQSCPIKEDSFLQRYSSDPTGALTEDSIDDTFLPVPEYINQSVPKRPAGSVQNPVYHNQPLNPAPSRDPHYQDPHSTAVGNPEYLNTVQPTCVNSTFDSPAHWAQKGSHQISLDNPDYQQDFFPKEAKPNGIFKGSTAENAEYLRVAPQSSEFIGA
# ASSAY_DETAILS: EGFR (L858R & T790M) inhibition assay, HTRF method
# TEST_SETTINGS: biochemical HTRF; EGFR (T790M/L858R) 2.5 nM, ATP 5 μM, 60 min room temperature
pIC50: −log10 of the molar value.

Just so you know, measured pIC50 for "C=CC(=O)Nc1cccc(Nc2nc(Nc3cnn(C(C)C)c3)ncc2Cl)c1" came out at 7.00 to 8.00

Just so you know, measured pIC50 for C=CC(=O)Nc1ccc(F)c(Nc2nc(Nc3cn(C)nc3C)ncc2Cl)c1 (single isomer, unassigned) came out at > 8.00

Just so you know, measured pIC50 for "C#CC(=O)Nc1cccc(Nc2nc(Nc3cnn(C)c3)ncc2Cl)c1" came out at 7.00 to 8.00

Just so you know, measured pIC50 for "C=CC(=O)Nc1cccc(Nc2nc(Nc3cc(C)no3)ncc2Cl)c1" came out at 7.00 to 8.00

Just so you know, measured pIC50 for "C=CC(=O)Nc1cccc(Nc2nc(Nc3cnn(C4CCN(CCF)CC4)c3)ncc2Cl)c1" came out at > 8.00

Just so you know, measured pIC50 for "C=CC(=O)Nc1cccc(Nc2nc(Nc3cnn(CCN(C)C)c3)ncc2Cl)c1" came out at 7.00 to 8.00

Just so you know, measured pIC50 for C=CC(=O)Nc1cccc(Nc2nc(Nc3cn(C)nc3C)ncc2Cl)n1 (single isomer, unassigned) came out at 7.00 to 8.00

Just so you know, measured pIC50 for C=CC(=O)NC1CCCC(Nc2nc(Nc3cnn(C)c3)ncc2Cl)C1 (centres unmarked) [Compound I-92] came out at 7.00 to 8.00

###

# ASSAYED_SYSTEM: EGFR (L858R & T790M) (Homo sapiens, UniProt P00533, L858R/T790M)
# Construct: GST
# ASSAY_DETAILS: EGFR (L858R & T790M) inhibition assay, HTRF method
# TEST_SETTINGS: biochemical HTRF; EGFR (T790M/L858R) 2.5 nM, ATP 5 μM, 60 min room temperature
Kindly supply the reported IC50 values for the records listed here.

Just so you know, measured IC50 for "C=CC(=O)Nc1cccc(Oc2nc(Nc3cnn(CCOC)c3)ncc2Cl)c1" came out at 10 to 100 nM

Just so you know, measured IC50 for CN(C)C/C=C/C(=O)N1CCCC(Nc2nc(Nc3cnn(C)c3)ncc2Cl)C1 (single isomer, unassigned) [II-4 (Enantiomer 2)] came out at > 100 nM

Just so you know, measured IC50 for "C=CC(=O)Nc1ccnc(Nc2nc(Nc3cnn(C)c3)ncc2Cl)c1" came out at 10 to 100 nM

Just so you know, measured IC50 for "C=CC(=O)Nc1cccc(Nc2nc(Nc3ncc(N4CCN(C)CC4)s3)ncc2Cl)c1" came out at 10 to 100 nM

Just so you know, measured IC50 for C=CC(=O)Nc1cccc(C(C)Nc2nc(Nc3cnn(C)c3)ncc2Cl)c1 (centres unmarked) came out at > 100 nM

Just so you know, measured IC50 for "C=CC(=O)Nc1cccc(Nc2nc(Nc3cnn(C)c3)nc(C)c2Cl)c1" came out at > 100 nM

Just so you know, measured IC50 for CN(C)C/C=C/C(=O)NCC1CCCC(Nc2nc(Nc3cnn(C)c3)ncc2Cl)C1 (centres unmarked) came out at > 100 nM

Just so you know, measured IC50 for "C=CC(=O)Nc1cccc(Nc2nc(Nc3cc(CN4CCOCC4)n(C)n3)ncc2Cl)c1" came out at > 100 nM

Just so you know, measured IC50 for "C=CC(=O)Nc1cccc(Nc2nc(Nc3cn(CCOC)nc3C)ncc2Cl)c1" came out at > 100 nM

Just so you know, measured IC50 for C=CC(=O)NC1CCCC(Nc2nc(Nc3cc(COC)n(C)n3)ncc2Cl)C1 (centres unmarked) came out at > 100 nM

Just so you know, measured IC50 for "C=CC(=O)Nc1cccc(Nc2nc(Nc3cnn(C4CCN(C)CC4)c3)ncc2C(F)(F)F)c1" came out at > 100 nM

Just so you know, measured IC50 for "C=CC(=O)Nc1ccc(F)c(Nc2nc(Nc3cc(C)no3)ncc2Cl)c1" came out at 10 to 100 nM

Just so you know, measured IC50 for "COCCn1cc(Nc2ncc(Cl)c(Nc3cccc(NC(=O)C=C4CCCCC4)c3)n2)cn1" came out at > 100 nM

Just so you know, measured IC50 for C=CC(=O)N1CCCC(Nc2nc(Nc3cnn(C4CCC4)c3)ncc2Cl)C1 (single isomer, unassigned) [II-6 (Enantiomer 2)] came out at > 100 nM

Just so you know, measured IC50 for "C=CC(=O)Nc1ccc(F)c(Nc2nc(Nc3onc(C)c3C)ncc2Cl)c1" came out at > 100 nM

Just so you know, measured IC50 for "C=CC(=O)Nc1cccc(Nc2nc(Nc3cnn(C)c3)ncc2Cl)c1" came out at < 10 nM

Just so you know, measured IC50 for "C=CC(=O)Nc1cccc(Nc2nc(Nc3cnn(Cc4cccc(C)n4)c3)ncc2Cl)c1" came out at > 100 nM

Just so you know, measured IC50 for "CN1CCC(n2cc(Nc3ncc(Cl)c(Nc4cccc(NC(=O)C=C5CCC(F)(F)CC5)c4)n3)cn2)CC1" came out at > 100 nM

Just so you know, measured IC50 for C=CC(=O)NC1CCCC(Nc2nc(Nc3cnn(C)c3)ncc2Cl)C1 (centres unmarked) [Compound I-126, 4-methylbenzenesulfonate] came out at > 100 nM

Just so you know, measured IC50 for CC(Nc1nc(Nc2cnn(C)c2)ncc1Cl)c1cccc(NC(=O)/C=C/CN(C)C)c1 (centres unmarked) came out at > 100 nM

Just so you know, measured IC50 for "C=CC(=O)Nc1cccc(Nc2nc(Nc3cnn(CCOC)c3C)ncc2Cl)c1" came out at 10 to 100 nM

Just so you know, measured IC50 for C=CC(=O)Nc1cccc(Nc2nc(Nc3cnn(C4CCNC(=O)C4)c3)ncc2Cl)c1 (centres unmarked) came out at 10 to 100 nM

Just so you know, measured IC50 for CN(C)C/C=C/C(=O)NC1CCCC(Nc2nc(Nc3cnn(C)c3)ncc2Cl)C1 (centres unmarked) came out at > 100 nM

Just so you know, measured IC50 for "C=CC(=O)Nc1cccc(Nc2nc(Nc3cnn(CCOC)c3)ncc2Cl)c1" came out at 10 to 100 nM

Just so you know, measured IC50 for "C=CC(=O)Nc1cccc(Oc2nc(Nc3cnn(CC(C)(C)O)c3)ncc2Cl)c1" came out at > 100 nM

Just so you know, measured IC50 for "C=CC(=O)Nc1cccc(Nc2nc(Nc3cnn(S(=O)(=O)C4CC4)c3)ncc2Cl)c1" came out at 10 to 100 nM

Just so you know, measured IC50 for "C=CC(=O)Nc1cc(Nc2nc(Nc3cnn(C4CCN(C)CC4)c3)ncc2Cl)c(F)cc1F" came out at < 10 nM

Just so you know, measured IC50 for "C=CC(=O)Nc1cccc(Nc2nc(Nc3cnn(C4CCN(C)CC4)c3)ncc2C)c1" came out at 10 to 100 nM

Just so you know, measured IC50 for "C=CC(=O)Nc1cccc(Nc2nc(Nc3cnn(C4CCN(C)CC4)c3)ncc2OC)c1" came out at 10 to 100 nM

Just so you know, measured IC50 for "C=CC(=O)Nc1cccc(Nc2nc(Nc3cnn(C4CCOCC4)c3)ncc2Cl)c1" came out at 10 to 100 nM

Just so you know, measured IC50 for "C=CC(=O)Nc1ccc(F)c(Nc2nc(Nc3ncc(Cl)s3)ncc2Cl)c1" came out at > 100 nM

Just so you know, measured IC50 for "C=CC(=O)Nc1cccc(Nc2nc(Nc3cn(C)cn3)ncc2Cl)c1" came out at 10 to 100 nM
